assay_comment: Primary qHTS for inhibitors of nuclear receptor binding SET domain protein 2 (NSD2) in an RCH-ACV wild type WT cells (2C) (AID 1645877); also: nearly all actives have a fitted effect of over 70% in size
reported_conditions: RCH-ACV (leukaemia line) NSD2 WT (2C) viability, CellTiter-Glo, 72 h; series mostly up to 44.9 µM
Inconclusive results are not listed. Calls of active or inactive are those of the source. Calls follow the shape of the dose curve; as a rule, active = well fitted inhibition curve with a large enough effect; inconclusive = small, poorly fitted or top-dose-only effect; inactive = no such curve, though single readings can be large or run the other way.
In this exercise, the only acceptable responses are label 1 for active, label 0 for inactive

INSERT INTO assay_data (compound, class_assignment) VALUES
  ('CCOC(=O)C(C)Oc1cccc2c(=O)n(CC(=O)Nc3ccc4c(c3)OCCO4)ccc12 (stereo not given)', 'label 0');

Would you mind telling me which call this test gave `COc1cc(OC)c(C(=O)CCCN2CCCC2)c(OC)c1` ?
label 0

Would you mind telling me which call this test gave CC1Cc2ccccc2N1NC(=O)c1ccc(Cl)c(S(N)(=O)=O)c1 (stereo not given) ?
label 0

Would you mind telling me which call this test gave `c1cnc2cc3c(cc2n1)C1CNCC3C1` ?
label 0

Would you mind telling me which call this test gave `O=c1oc2cc(O)ccc2s1` ?
label 1

Would you mind telling me which call this test gave `CCCc1cc(=O)[nH]c(=S)[nH]1` ?
label 0

Would you mind telling me which call this test gave `Nc1nc(N)c(N=O)c(OCC2CCCCC2)n1` ?
label 1

Would you mind telling me which call this test gave Clc1ccc(C(Cn2ccnc2)OCc2ccc(Sc3ccccc3)cc2)c(Cl)c1 (stereo not given) ?
label 1

Would you mind telling me which call this test gave `O=C(O)c1cn(-c2ccc(F)cc2)c2cc(N3CCNCC3)c(F)cc2c1=O` ?
label 0

Would you mind telling me which call this test gave O=C(c1ccccc1)c1ccc2n1CCC2C(=O)O (stereo not given) ?
label 0

Would you mind telling me which call this test gave CC(S)C(=O)NCC(=O)O (stereo not given) ?
label 0

Would you mind telling me which call this test gave `Cc1cc(O)c2c(c1)C(=O)c1cc(O)cc(O)c1C2=O` ?
label 0

Would you mind telling me which call this test gave O=C(NCC1CCCCN1)c1cc(OCC(F)(F)F)ccc1OCC(F)(F)F (stereo not given) ?
label 0

Would you mind telling me which call this test gave `CN1C(C(=O)Nc2ccccn2)=C(O)c2sccc2S1(=O)=O` ?
label 0

Would you mind telling me which call this test gave `CC(C)[C@H](N)C(=O)OCCOCn1cnc2c(=O)[nH]c(N)nc21` ?
label 0

Would you mind telling me which call this test gave `Nc1ccc(S(N)(=O)=O)cc1` ?
label 0

Would you mind telling me which call this test gave `Oc1ccc(-c2nc(-c3ccc(F)cc3)c(-c3ccncc3)[nH]2)cc1` ?
label 1

Would you mind telling me which call this test gave Clc1ccc(C(Cn2ccnc2)OCc2ccsc2Cl)c(Cl)c1 (stereo not given) ?
label 1

Would you mind telling me which call this test gave `COCCCN1CCC(NC(=O)c2cc(Cl)c(N)c3c2OCC3)CC1` ?
label 0

Would you mind telling me which call this test gave `Cc1cc(=O)oc2cc(O)ccc12` ?
label 0
